# TGT: UniProtKB P57059
# Sequence (P57059 whole entry): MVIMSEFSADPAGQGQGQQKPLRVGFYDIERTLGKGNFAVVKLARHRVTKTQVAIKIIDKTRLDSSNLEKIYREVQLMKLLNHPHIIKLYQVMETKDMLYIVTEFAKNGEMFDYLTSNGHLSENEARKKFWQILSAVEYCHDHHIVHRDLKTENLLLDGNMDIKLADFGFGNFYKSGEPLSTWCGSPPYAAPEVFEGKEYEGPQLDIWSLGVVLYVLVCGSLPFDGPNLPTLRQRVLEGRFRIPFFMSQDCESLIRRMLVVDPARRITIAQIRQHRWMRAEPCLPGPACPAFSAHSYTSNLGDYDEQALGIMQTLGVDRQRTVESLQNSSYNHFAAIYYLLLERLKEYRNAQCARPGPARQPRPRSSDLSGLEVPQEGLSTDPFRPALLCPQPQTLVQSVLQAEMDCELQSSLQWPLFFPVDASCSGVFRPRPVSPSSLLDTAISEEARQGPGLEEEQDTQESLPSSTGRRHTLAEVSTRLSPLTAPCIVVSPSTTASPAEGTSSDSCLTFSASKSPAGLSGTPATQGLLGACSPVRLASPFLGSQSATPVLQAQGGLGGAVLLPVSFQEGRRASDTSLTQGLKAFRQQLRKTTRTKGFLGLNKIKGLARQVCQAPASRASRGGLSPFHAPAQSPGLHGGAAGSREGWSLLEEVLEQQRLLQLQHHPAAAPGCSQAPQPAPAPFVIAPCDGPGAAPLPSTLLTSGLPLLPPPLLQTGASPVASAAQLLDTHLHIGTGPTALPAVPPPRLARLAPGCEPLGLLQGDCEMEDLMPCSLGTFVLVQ
# PROTOCOL NOTES: Phosphorylation assay SIK1 (RapidFire mass spectrometry)
# Assay type: biochemical
# RUN PARAMETERS: 5 nM SIK1, CHK-peptide, ATP, 30 min pre-incubation, 45 min incubation; read-out: SIK1 RF IC50
pIC50: −log10 of the molar value.
# pIC50 per record follows
EXPERIMENTAL READOUT: pIC50

* CC(=O)c1ccc(-n2cnc3cc(Nc4ccc(C)nn4)ncc32)nc1-n1nc(C#N)cc1C | 5.34
* Cc1ccc(Nc2cc3ncn(-c4ccc(C(C)O)c(-c5cn(CC(F)(F)F)nc5C)n4)c3cn2)nn1 (stereo not drawn) | 6.40
* Cc1ccc(Nc2cc3ncn(-c4ccc(C(C)O)c(-n5nc(C#N)cc5C)n4)c3cn2)cn1 (stereo not drawn) | 7.11
